- test.system: human ether-à-go-go-related gene (hERG) potassium channel (human)
- Sequence (Q12809 whole entry, looked up): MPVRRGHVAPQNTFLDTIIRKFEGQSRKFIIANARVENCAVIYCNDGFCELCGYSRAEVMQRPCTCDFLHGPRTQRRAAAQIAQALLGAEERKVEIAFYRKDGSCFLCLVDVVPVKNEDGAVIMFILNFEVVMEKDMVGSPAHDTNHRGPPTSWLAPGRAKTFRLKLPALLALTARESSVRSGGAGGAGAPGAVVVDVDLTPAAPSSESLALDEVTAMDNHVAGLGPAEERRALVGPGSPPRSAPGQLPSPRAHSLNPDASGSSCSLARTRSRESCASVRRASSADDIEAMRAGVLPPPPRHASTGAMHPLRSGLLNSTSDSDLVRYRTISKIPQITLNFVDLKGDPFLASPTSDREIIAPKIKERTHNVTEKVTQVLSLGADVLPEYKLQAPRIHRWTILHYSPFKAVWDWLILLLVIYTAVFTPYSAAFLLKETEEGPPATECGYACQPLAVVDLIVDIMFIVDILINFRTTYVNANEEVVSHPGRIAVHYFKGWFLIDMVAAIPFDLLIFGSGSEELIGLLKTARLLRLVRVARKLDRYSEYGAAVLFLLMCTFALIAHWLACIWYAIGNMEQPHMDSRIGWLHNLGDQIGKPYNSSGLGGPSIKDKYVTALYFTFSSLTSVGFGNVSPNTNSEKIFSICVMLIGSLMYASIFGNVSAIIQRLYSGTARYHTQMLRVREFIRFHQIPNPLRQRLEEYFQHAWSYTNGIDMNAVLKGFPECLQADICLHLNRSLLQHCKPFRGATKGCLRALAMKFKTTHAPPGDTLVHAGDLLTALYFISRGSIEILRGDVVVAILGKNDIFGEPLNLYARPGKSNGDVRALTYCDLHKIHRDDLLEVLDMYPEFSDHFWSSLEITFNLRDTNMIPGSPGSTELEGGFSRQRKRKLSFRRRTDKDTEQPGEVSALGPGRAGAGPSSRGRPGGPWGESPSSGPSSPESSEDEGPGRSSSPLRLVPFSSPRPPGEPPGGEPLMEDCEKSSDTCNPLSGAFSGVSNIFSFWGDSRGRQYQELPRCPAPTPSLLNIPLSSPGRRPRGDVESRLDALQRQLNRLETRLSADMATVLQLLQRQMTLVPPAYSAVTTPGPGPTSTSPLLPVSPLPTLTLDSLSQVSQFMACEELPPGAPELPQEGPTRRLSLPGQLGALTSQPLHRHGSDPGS
- test.description: primary screen, population patch clamp on CHO cells stably expressing hERG; higher = less effect of the substance
- Description: Briefly, Chinese hamster ovary (CHO) cells stably expressing the hERG channel were dislodged from tissue culture flasks and dispensed into PPC plates. […] Small molecule effects on hERG current density were quantified by […].
The whole screen tested about 310,000 compounds, of which about 2,200 (0.71%) showed an effect of 50% or more. Effects have a minus sign here. The list comes from a sample in which strong results are over-represented; it also holds close analogues and randomly drawn compounds.
experimental.endpoint: hERG current change (%, negative = inhibition) at 1uM (%)

>  <molecule>
COc1ccc(CCn2c(SCCN3CCCCC3)nc3ccccc3c2=O)cc1OC

>  <scale.unit>
%

>  <quantitative.result>
-8.22

$$$$
>  <molecule>
CC(C)CN(C(=O)COC(=O)c1cnc(Cl)c(Cl)c1)c1c(N)n(Cc2ccccc2)c(=O)[nH]c1=O

>  <scale.unit>
%

>  <quantitative.result>
8.68

$$$$
>  <molecule>
CCOC(=O)C1(CCc2ccccc2)CCN(Cc2ccc(O)cc2)CC1

>  <scale.unit>
%

>  <quantitative.result>
-86.3

$$$$
>  <molecule>
COCCn1c(SCC(=O)N2CCC(C)CC2)nc2ccccc2c1=O

>  <scale.unit>
%

>  <quantitative.result>
-57.9

$$$$
>  <molecule>
COc1ccc(-n2c(SCC(=O)Nc3nccs3)nnc2-c2ccoc2C)cc1

>  <scale.unit>
%

>  <quantitative.result>
-79.4

$$$$
>  <molecule>
O=c1c2ccccc2nc(SCCN2CCCCC2)n1CCc1ccccc1

>  <scale.unit>
%

>  <quantitative.result>
-10

$$$$
>  <molecule>
CCOC(=O)C1(CCc2ccccc2)CCN(Cc2cc(OC)c(OC)cc2OC)CC1

>  <scale.unit>
%

>  <quantitative.result>
-68.1

$$$$
>  <molecule>
CCC(C)(C)c1ccc(OCCCC[n+]2cccc(C)c2C)c(C(C)(C)CC)c1.[Br-]

>  <scale.unit>
%

>  <quantitative.result>
-52.7

$$$$
>  <molecule>
CS(=O)(=O)N1CCN(c2ccccc2NC(=O)c2ccc3c(c2)OCCO3)CC1

>  <scale.unit>
%

>  <quantitative.result>
9.09

$$$$
>  <molecule>
N#Cc1ccc(-c2ccc(OCC3CNC(=O)O3)cc2)cc1 (stereo not shown)

>  <scale.unit>
%

>  <quantitative.result>
8.74

$$$$
>  <molecule>
Cc1c(C2N3CC4(C)CN2CC(C)(C3)C4=O)c2ccccc2n1C (stereo not shown)

>  <scale.unit>
%

>  <quantitative.result>
-15.5

$$$$
>  <molecule>
Cc1ccc(S(=O)(=O)N2CCC(C(=O)Nc3ncccc3O)CC2)cc1

>  <scale.unit>
%

>  <quantitative.result>
-13.8

$$$$
>  <molecule>
Cc1ccc2cc(CN(CC3CCCO3)C(=S)Nc3ccccc3)c(=O)[nH]c2c1C (stereo not shown)

>  <scale.unit>
%

>  <quantitative.result>
13.3

$$$$
>  <molecule>
CCC(C)(C)c1ccc(OCCCC[n+]2ccc(C)cc2)c(C(C)(C)CC)c1.[Br-]

>  <scale.unit>
%

>  <quantitative.result>
-34.5

$$$$
>  <molecule>
CC(=O)C[C@H]1c2ccccc2S(=O)(=O)N1C1CCCC1

>  <scale.unit>
%

>  <quantitative.result>
14.6

$$$$
>  <molecule>
CCOC(=O)C1(Cc2ccccc2)CCN(Cc2ccc3c(c2)OCCO3)CC1

>  <scale.unit>
%

>  <quantitative.result>
-0.488

$$$$
>  <molecule>
COCCn1c(SCC(=O)N2CCCCC2)nc2ccccc2c1=O

>  <scale.unit>
%

>  <quantitative.result>
-30.8

$$$$
>  <molecule>
COc1ccc(CNC(=O)CCC(=O)N2CC(C)Oc3ccccc32)cc1 (stereo not shown)

>  <scale.unit>
%

>  <quantitative.result>
-0.874

$$$$
>  <molecule>
CC(=O)c1ccc(NS(=O)(=O)c2ccc3c(c2)N(C)CCO3)cc1

>  <scale.unit>
%

>  <quantitative.result>
1.5

$$$$
>  <molecule>
CCOC(=O)C1(Cc2ccccc2)CCN(Cc2cccc(OC)c2O)CC1

>  <scale.unit>
%

>  <quantitative.result>
-31

$$$$
>  <molecule>
NC(=O)Nc1ccccc1C(=O)NCCc1ccccc1

>  <scale.unit>
%

>  <quantitative.result>
9.22

$$$$
>  <molecule>
Cc1ccc(Nc2nc(NCCCN3CCOCC3)nc(N)c2[N+](=O)[O-])cc1

>  <scale.unit>
%

>  <quantitative.result>
-56.2

$$$$
>  <molecule>
Br.N=c1n(CCN2CCOCC2)c2ccccc2n1Cc1ccccc1Br

>  <scale.unit>
%

>  <quantitative.result>
-51.7

$$$$
>  <molecule>
Cc1ccc(Nc2nc(NCCCN3CCOCC3)nc(N)c2[N+](=O)[O-])cc1C

>  <scale.unit>
%

>  <quantitative.result>
4.15

$$$$
>  <molecule>
COP(=O)(CC(=O)c1ccccc1)CC(=O)c1ccccc1

>  <scale.unit>
%

>  <quantitative.result>
8.51

$$$$
>  <molecule>
Cc1ccc(-n2c(SCC(N)=O)nnc2-c2ccccn2)cc1C

>  <scale.unit>
%

>  <quantitative.result>
13

$$$$
>  <molecule>
COc1ccc(NC(=O)c2ccc(-n3cccn3)nc2)c(OC)c1

>  <scale.unit>
%

>  <quantitative.result>
17.4

$$$$
>  <molecule>
CCOC(=O)C1(CCc2ccccc2)CCN(CC(O)CO)CC1 (stereo not shown)

>  <scale.unit>
%

>  <quantitative.result>
1.26

$$$$
>  <molecule>
CCCSc1nnc2n(N)c(=O)c3ccccc3n12

>  <scale.unit>
%

>  <quantitative.result>
11.3

$$$$
>  <molecule>
CCOc1ccccc1OCCOCCN1CC(C)OC(C)C1 (stereo not shown)

>  <scale.unit>
%

>  <quantitative.result>
2.22

$$$$
>  <molecule>
CS(=O)(=O)N1CCc2cc(C(=O)Nc3ccc(COCC(F)(F)F)cc3)ccc21

>  <scale.unit>
%

>  <quantitative.result>
10.4

$$$$
>  <molecule>
COc1ccc(Nc2nc(NCCCN3CCOCC3)nc(N)c2[N+](=O)[O-])cc1

>  <scale.unit>
%

>  <quantitative.result>
3.71

$$$$
>  <molecule>
COCCn1c(SCCN2CCCCC2)nc2ccccc2c1=O

>  <scale.unit>
%

>  <quantitative.result>
-53.3

$$$$
>  <molecule>
Cc1ccc(NS(=O)(=O)c2ccc3c(c2)N(C)CCO3)cc1

>  <scale.unit>
%

>  <quantitative.result>
-79.6

$$$$
>  <molecule>
C=CCn1c(SCC(=O)NC2CCCC2)nc2c([nH]c3ccccc32)c1=O

>  <scale.unit>
%

>  <quantitative.result>
-16.9

$$$$
>  <molecule>
COc1cccc(-n2c(SCC(=O)NC(C)(C)C)nnc2-c2ccoc2C)c1

>  <scale.unit>
%

>  <quantitative.result>
-3.46

$$$$
>  <molecule>
CCOC(=O)C1(CCOc2ccccc2)CCN(Cc2ccc3c(c2)OCCO3)CC1

>  <scale.unit>
%

>  <quantitative.result>
-25.8

$$$$
>  <molecule>
CCOC(=O)C1(CCc2ccccc2)CCN(Cc2ccco2)CC1

>  <scale.unit>
%

>  <quantitative.result>
-42.7

$$$$
>  <molecule>
COc1ccc(-n2c(SCC(=O)Nc3nccs3)nnc2-c2ccccc2)cc1

>  <scale.unit>
%

>  <quantitative.result>
13.9

$$$$
>  <molecule>
CCOc1ccc(OCC(=O)OCC(=O)N(CC(C)C)c2c(N)n(Cc3ccccc3)c(=O)[nH]c2=O)cc1

>  <scale.unit>
%

>  <quantitative.result>
5.08

$$$$
